Biological target: wild-type Kv4.2/KChIP1b channels (Rattus norvegicus, UniProt Q63881)
Sequence (Q63881 whole entry): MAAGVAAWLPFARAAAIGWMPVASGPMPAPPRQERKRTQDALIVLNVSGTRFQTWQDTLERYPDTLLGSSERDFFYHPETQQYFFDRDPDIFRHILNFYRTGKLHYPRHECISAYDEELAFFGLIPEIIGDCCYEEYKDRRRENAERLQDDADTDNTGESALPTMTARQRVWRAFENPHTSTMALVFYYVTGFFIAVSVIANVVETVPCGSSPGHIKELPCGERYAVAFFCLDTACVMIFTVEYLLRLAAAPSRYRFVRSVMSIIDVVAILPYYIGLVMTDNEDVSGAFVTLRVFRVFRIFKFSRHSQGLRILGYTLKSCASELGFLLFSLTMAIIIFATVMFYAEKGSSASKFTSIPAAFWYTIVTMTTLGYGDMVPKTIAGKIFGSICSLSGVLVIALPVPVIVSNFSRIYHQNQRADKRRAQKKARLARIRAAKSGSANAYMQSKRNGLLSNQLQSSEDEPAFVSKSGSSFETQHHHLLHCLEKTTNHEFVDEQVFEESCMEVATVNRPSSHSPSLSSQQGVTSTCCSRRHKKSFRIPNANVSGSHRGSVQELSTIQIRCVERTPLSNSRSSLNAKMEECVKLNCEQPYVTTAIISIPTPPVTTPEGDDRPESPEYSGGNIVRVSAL
Type: cell-based
Settings: fitted Kd for AA inhibition of peak current, Hill equation, nH = 1, +40 mV, 1 to 300 µM AA, WT
pKd: −log10 of the molar value.

compound-structure-string | pKd
CCCCC/C=C\C/C=C\C/C=C\C/C=C\CCCC(=O)O | 4.68

###

Target: Kv4.2 V261F/K318Q double mutant channels (co-injected with KChIP1b) (Rattus norvegicus, UniProt Q63881, K318Q/V261F)
Sequence (Q63881 whole entry V261F/K318Q): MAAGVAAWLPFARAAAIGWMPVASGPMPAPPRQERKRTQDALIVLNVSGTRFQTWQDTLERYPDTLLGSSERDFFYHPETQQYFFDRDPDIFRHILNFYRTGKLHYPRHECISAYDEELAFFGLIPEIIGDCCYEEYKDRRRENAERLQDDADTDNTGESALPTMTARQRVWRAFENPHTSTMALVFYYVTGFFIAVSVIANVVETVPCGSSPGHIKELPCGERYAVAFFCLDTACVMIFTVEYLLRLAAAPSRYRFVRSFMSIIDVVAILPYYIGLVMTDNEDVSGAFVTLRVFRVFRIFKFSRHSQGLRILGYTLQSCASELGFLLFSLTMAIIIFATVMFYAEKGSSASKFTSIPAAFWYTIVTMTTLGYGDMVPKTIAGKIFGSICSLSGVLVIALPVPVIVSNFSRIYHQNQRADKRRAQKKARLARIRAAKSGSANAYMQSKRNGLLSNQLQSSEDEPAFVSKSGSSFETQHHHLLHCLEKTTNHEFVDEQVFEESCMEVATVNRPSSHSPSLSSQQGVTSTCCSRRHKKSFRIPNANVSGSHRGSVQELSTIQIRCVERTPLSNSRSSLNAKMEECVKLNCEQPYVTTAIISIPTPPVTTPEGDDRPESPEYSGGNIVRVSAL
Conditions: fitted Kd for AA inhibition of peak current, Hill equation, nH = 1, +40 mV
value-type: Kd (µM)

compound-structure-string | value-type | experimental-value
CCCCC/C=C\C/C=C\C/C=C\C/C=C\CCCC(=O)O | Kd | 45.7

Cited source: paper PMC3667888
